# study.target: UniProt A0A346RTY9
# Sequence (A0A346RTY9 entry or part of it): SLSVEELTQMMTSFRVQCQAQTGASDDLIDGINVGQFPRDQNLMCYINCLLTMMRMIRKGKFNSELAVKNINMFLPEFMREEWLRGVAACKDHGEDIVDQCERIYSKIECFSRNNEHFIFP
# test.protocol: Fluorescence competitive binding assay with 1-NPN probe, recombinant SmosOBP17
measure.name: IC50

Value lookup for IC50; key = CC1=CCC2CC1C2(C)C (stereo not shown)
> 40 µM

Now give it for "C=C1CC/C=C(\C)CC[C@@H]2[C@@H]1CC2(C)C" too.
> 40 µM

Now give it for "CCCCC(C)=O" too.
> 40 µM

Now give it for COC(=O)c1ccccc1O [Methyl salicylate] too.
26.8 µM

====

For each entry below, report its IC50 value.
# study.target: UniProtKB A0A346RTY7
# Sequence (A0A346RTY7 entry or part of it): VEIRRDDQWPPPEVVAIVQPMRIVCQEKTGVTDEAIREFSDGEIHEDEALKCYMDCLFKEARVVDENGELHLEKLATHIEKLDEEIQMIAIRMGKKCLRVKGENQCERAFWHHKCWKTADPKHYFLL
# test.protocol: Fluorescence competitive binding assay with 1-NPN probe, recombinant SmosOBP12

Value lookup for IC50; key = COC(=O)c1ccccc1O [Methyl salicylate]
11.9 µM

Now give it for CC1=CCC2CC1C2(C)C (stereo not drawn) [α-Pinene] too.
7.63 µM

Now give it for C=C1CC/C=C(\C)CC[C@@H]2[C@@H]1CC2(C)C [β-Caryophyllene] too.
> 14 µM

Now give it for CCCCC(C)=O [2-Hexanone] too.
12.7 µM

Recorded values, source paper PMC7767053.
